- assayOverview: total protein half-life in vivo (active degradation + dilution); higher = more stable protein
- setupConditions: E. coli NCM3722 delta-smpB; growth: N-lim chemostat; doubling time 6 h
Measured total protein half-life in vivo, listed per entry.

{"sequenceEntry": "MTISELLQYCMAKPGAEQSVHNDWKATQIKVEDVLFAMVKEVENRPAVSLKTSPELAELLRQQHSDVRPSRHLNKAHWSTVYLDGSLPDSQIYYLVDASYQQAVNLLPEEKRKLLVQL [P0AF50]", "total protein half-life in vivo (h)": 4.39}
{"sequenceEntry": "MMSTTLFKDFTFEAAHRLPHVPEGHKCGRLHGHSFMVRLEITGEVDPHTGWIIDFAELKAAFKPTYERLDHHYLNDIPGLENPTSEVLAKWIWDQVKPVVPLLSAVMVKETCTAGCIYRGE", "total protein half-life in vivo (h)": 5.53}
{"sequenceEntry": "MSQPLLSVNGLMMRFGGLLAVNNVNLELYPQEIVSLIGPNGAGKTTVFNCLTGFYKPTGGTILLRDQHLEGLPGQQIARMGVVRTFQHVRLFREMTVIENLLVAQHQQLKTGLFSGLLKTPSFRRAQSEALDRAATWLERIGLLEHANRQASNLAYGDQRRLEIARCMVTQPEILMLDEPAAGLNPKETKELDELIAELRNHHNTTILLIEHDMKLVMGISDRIYVVNQGTPLANGTPEQIRNNPDVIRAYLGEA [P0A9S7]", "total protein half-life in vivo (h)": 5.74}
{"sequenceEntry": "MHPMLNIAVRAARKAGNLIAKNYETPDAVEASQKGSNDFVTNVDKAAEAVIIDTIRKSYPQHTIITEESGELEGTDQDVQWVIDPLDGTTNFIKRLPHFAVSIAVRIKGRTEVAVVYDPMRNELFTATRGQGAQLNGYRLRGSTARDLDGTILATGFPFKAKQYATTYINIVGKLFNECADFRRTGSAALDLAYVAAGRVDGFFEIGLRPWDFAAGELLVREAGGIVSDFTGGHNYMLTGNIVAGNPRVVKAMLANMRDELSDALKR [P0ADG4]", "total protein half-life in vivo (h)": 5.39}
